Reference for the values: patent US8653087B2

- TEST SYSTEM: B-Raf (V600E)-kinase (Homo sapiens (Human), UniProt P15056, V600E)
- Sequence (P15056 whole entry V600E): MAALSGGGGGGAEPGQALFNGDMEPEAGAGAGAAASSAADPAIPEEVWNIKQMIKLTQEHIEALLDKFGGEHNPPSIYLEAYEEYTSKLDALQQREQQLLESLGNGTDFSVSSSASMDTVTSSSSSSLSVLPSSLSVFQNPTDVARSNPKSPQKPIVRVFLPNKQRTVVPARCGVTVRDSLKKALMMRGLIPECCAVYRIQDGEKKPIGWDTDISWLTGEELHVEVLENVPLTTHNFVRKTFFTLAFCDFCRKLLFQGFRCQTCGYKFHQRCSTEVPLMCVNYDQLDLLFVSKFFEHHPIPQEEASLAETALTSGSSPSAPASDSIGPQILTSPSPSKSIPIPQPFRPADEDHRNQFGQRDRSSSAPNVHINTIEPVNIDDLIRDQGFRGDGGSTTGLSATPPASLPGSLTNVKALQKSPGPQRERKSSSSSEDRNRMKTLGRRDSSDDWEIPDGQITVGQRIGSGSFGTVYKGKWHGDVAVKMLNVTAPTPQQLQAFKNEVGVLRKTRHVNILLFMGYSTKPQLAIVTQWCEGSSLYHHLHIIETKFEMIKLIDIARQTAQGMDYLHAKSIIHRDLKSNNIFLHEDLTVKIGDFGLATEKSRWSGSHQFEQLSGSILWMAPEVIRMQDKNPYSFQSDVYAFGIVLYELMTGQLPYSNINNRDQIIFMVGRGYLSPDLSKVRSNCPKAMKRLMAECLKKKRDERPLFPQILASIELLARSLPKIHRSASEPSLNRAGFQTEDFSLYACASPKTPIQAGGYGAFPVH
- MEASUREMENT NOTES: Kinase test B-RAF (V600E)
- Format: biochemical
- MEASUREMENT PARAMETERS: B-RAF (V600E) kinase test, 250 μM ATP
- Procedure: Kinase Test B-RAF (V600E) In a dilution series 10 μL of test substance solution are placed in a multiwell plate. The dilution series is selected so that generally a range of concentrations of 2 μM to 0.119 nM or 0.017 nM is covered. […] After the addition of 200 μL Enhancement Solution (Perkin Elmer, #4001-0010/#1244-105) the mixture is shaken for 10 min at RT and then measured in a Wallac Victor using the program “Delfia Time Resolved Fluorescence (Europium)”. […]
Each record's IC50 is compared with bottom end = under 3 nM, midrange = from 3 nM up to 50 nM, top end = 50 nM and over to give its class.

Lookup: Bin this entry: COc1ccc(NC(=O)c2ccc(C)c(Nc3ncnc4cnc(N5CCN(C6CC6)CC5)nc34)c2)cc1C(F)(F)F
Found: midrange

Lookup: Bin this entry: COCCNc1ncc2ncnc(Nc3cc(C(=O)Nc4cc(C(C)(C)C)on4)ccc3C)c2n1
Found: bottom end

Lookup: Bin this entry: Cc1ccc(NC(=O)c2cc(C(C)(C)C)nn2C)cc1Nc1ncnc2cnc(N3CCN(C)CC3)nc12
Found: top end

Lookup: Bin this entry: CC(C)(C)c1cc(NC(=O)c2ccc(F)c(Nc3ncnc4cnc(N5CCOCC5)nc34)c2)[nH]n1
Found: bottom end

Lookup: Bin this entry: Cc1ccc(C(=O)Nc2cc(C(C)(C)C)n[nH]2)cc1Nc1ncnc2c(N)nc(N3CCN(CC4CCN(C)CC4)CC3)nc12
Found: midrange

Lookup: Bin this entry: Cc1ccc(C(=O)NCc2cccc(C(C)(C)C)c2)cc1Nc1ncnc2cnc(N3CCCC3)nc12
Found: top end

Lookup: Bin this entry: Cc1ccc(C(=O)Nc2nnc(C(F)(F)F)s2)cc1Nc1ncnc2cnc(N3CCCCC3)nc12
Found: top end

Lookup: Bin this entry: COCCN1CCN(c2ncc3ncnc(Nc4cc(C(=O)Nc5ccc(OC)c(C(F)(F)F)c5)ccc4F)c3n2)CC1
Found: bottom end

---

- TEST SYSTEM: B-Raf (V600E)-kinase (Homo sapiens (Human), UniProt P15056, V600E)
- MEASUREMENT NOTES: Kinase test B-RAF (V600E)
- Type: biochemical
- MEASUREMENT PARAMETERS: B-RAF (V600E) kinase test, 250 μM ATP
READOUT KIND: IC50 (nM)
Give a bare numeral; the unit nM is implied.

Lookup: Give IC50 for the following compound: COCCN(C)c1ncc2ncnc(Nc3cc(C(=O)Nc4ccc(OC)c(C(F)(F)F)c4)ccc3Cl)c2n1 [III-4]
Found: 2

Lookup: Give IC50 for the following compound: Cc1ccc(C(=O)Nc2cc(C(F)(F)F)ccn2)cc1Nc1ncnc2cnc(N(C)CCN(C)C)nc12 [III-279]
Found: 6

Lookup: Give IC50 for the following compound: CN1CCC(CN2CCN(c3nc(N)c4ncnc(Nc5cc(C(=O)Nc6cccc(C(F)(F)F)c6)ccc5Br)c4n3)CC2)CC1 [I-29]
Found: 15

Lookup: Give IC50 for the following compound: Cc1ccc(NC(=O)c2cccc(C(F)(F)F)c2)cc1Nc1ncnc2c(N)nc(N3CCCN(C)CC3)nc12 [II-2]
Found: 41

Lookup: Give IC50 for the following compound: CN1CCN(c2ncc3ncnc(Nc4cc(C(=O)Nc5cc(C(C)(C)C)on5)ccc4Cl)c3n2)CC1 [III-72]
Found: 4

Lookup: Give IC50 for the following compound: CC(=O)N1CCN(c2ncc3ncnc(Nc4cc(NC(=O)c5cccc(C(C)(C)C#N)c5)ccc4C)c3n2)CC1 [IV-36]
Found: 4

---

- TEST SYSTEM: B-Raf (V600E)-kinase (Homo sapiens (Human), UniProt P15056, V600E)
- MEASUREMENT NOTES: Kinase test B-RAF (V600E)
- Assay type: biochemical
- MEASUREMENT PARAMETERS: B-RAF (V600E) kinase test, 250 μM ATP
IC50 strictly under 30 nM means 1.0; at 30 nM or over means 0.0.

Lookup: Criterion: IC50 strictly below 30 nM. Is it met by COc1ccc(NC(=O)c2ccc(C)c(N(C)c3ncnc4cnc(NC5CCOC5)nc34)c2)cc1C(F)(F)F (stereo not shown) ?
Found: 1.0

Lookup: Criterion: IC50 strictly below 30 nM. Is it met by Cc1ccc(C(=O)NCc2ccc(C(F)(F)F)cc2)cc1Nc1ncnc2cnc(N3CCN(C)CC3)nc12 ?
Found: 0.0

Lookup: Criterion: IC50 strictly below 30 nM. Is it met by COc1ncc2ncnc(Nc3cc(C(=O)Nc4cc(CN5CCCC5)cc(C(F)(F)F)c4)ccc3C)c2n1 ?
Found: 1.0

Lookup: Criterion: IC50 strictly below 30 nM. Is it met by CNc1ncnc2c(Nc3cc(NC(=O)c4cccc(C(C)(C)C#N)c4)ccc3C)ncnc12 ?
Found: 1.0

Lookup: Criterion: IC50 strictly below 30 nM. Is it met by COc1ccc(NC(=O)c2ccc(C(F)(F)F)c(Nc3ncnc4cnc(N(C)CCN5CCCC5)nc34)c2)cc1C(F)(F)F ?
Found: 0.0

Lookup: Criterion: IC50 strictly below 30 nM. Is it met by COc1ccc(C(C)(C)C)cc1NC(=O)c1ccc(C)c(Nc2ncnc3cnc(N(C)CCN(C)C)nc23)c1 ?
Found: 1.0

Lookup: Criterion: IC50 strictly below 30 nM. Is it met by Cc1ccc(C(=O)Nc2ccc(N(C)CCN(C)C)c(C(F)(F)F)c2)cc1Nc1ncnc2cnc(NCc3ccccn3)nc12 ?
Found: 1.0

---

- TEST SYSTEM: B-Raf (V600E)-kinase (Homo sapiens (Human), UniProt P15056, V600E)
- MEASUREMENT NOTES: Kinase test B-RAF (V600E)
- Assay type: biochemical
- MEASUREMENT PARAMETERS: B-RAF (V600E) kinase test, 250 μM ATP
READOUT KIND: IC50 (nM)
Give a bare numeral; the unit nM is implied.

Lookup: Give IC50 for the following compound: COc1ccc(NC(=O)c2ccc(C)c(Nc3ncnc4cnc(N5CCC(N6CCCCC6)CC5)nc34)c2)cc1C(F)(F)F [III-556]
Found: 7

Lookup: Give IC50 for the following compound: COc1ccc(C(=O)Nc2cc(C(C)(C)C)on2)cc1Nc1ncnc2cnc(N3CCN(C)CC3)nc12 [III-95]
Found: 2

Lookup: Give IC50 for the following compound: Cc1ccc(C(=O)Nc2ccc(C#N)c(C(F)(F)F)c2)cc1Nc1ncnc2c(N)nc(N3CCN(C)CC3)nc12 [I-71]
Found: 7

---

- TEST SYSTEM: B-Raf (V600E)-kinase (Homo sapiens (Human), UniProt P15056, V600E)
- MEASUREMENT NOTES: Kinase test B-RAF (V600E)
- Format: biochemical
- MEASUREMENT PARAMETERS: B-RAF (V600E) kinase test, 250 μM ATP
IC50 strictly under 4 nM means yes (1); at 4 nM or over means no (0).

Lookup: Criterion: IC50 strictly below 4 nM. Is it met by COc1ncc2ncnc(Nc3cc(NC(=O)c4cccc(C(C)(C)C#N)c4)ccc3C)c2n1 ?
Found: yes (1)

Lookup: Criterion: IC50 strictly below 4 nM. Is it met by Cc1ccc(C(=O)Nc2cc(C(C)(C)C)on2)cc1Nc1ncnc2cnc(NCCCN(C)C)nc12 ?
Found: yes (1)

Lookup: Criterion: IC50 strictly below 4 nM. Is it met by Cc1ccc(C(=O)Nc2cc(CN3CCCC3)cc(C(F)(F)F)c2)cc1Nc1ncnc2cnc(N3CCCCC3)nc12 ?
Found: yes (1)

Lookup: Criterion: IC50 strictly below 4 nM. Is it met by Cc1ccc(C(=O)Nc2cc(C(C)(C)C)n[nH]2)cc1Nc1ncnc2c(N)nc(N3CCN(C4CC4)CC3)nc12 ?
Found: no (0)

Lookup: Criterion: IC50 strictly below 4 nM. Is it met by Cc1ccc(C(=O)Nc2cc(N(C)CCN(C)C)cc(C(F)(F)F)c2)cc1Nc1ncnc2cnc(NCc3cccnc3)nc12 ?
Found: yes (1)

Lookup: Criterion: IC50 strictly below 4 nM. Is it met by Cc1ccc(NS(=O)(=O)CC(C)C)cc1Nc1ncnc2cnc(N3CCN(C)CC3)nc12 ?
Found: no (0)

Lookup: Criterion: IC50 strictly below 4 nM. Is it met by COc1ccc(NC(=O)c2ccc(C)c(Nc3ncnc4cnc(N5CCCC5)nc34)c2)cc1C(F)(F)F ?
Found: yes (1)

Lookup: Criterion: IC50 strictly below 4 nM. Is it met by Cc1ccc(C(=O)Nc2nnc(C(F)(F)F)s2)cc1Nc1ncnc2cnc(N3CCNCC3)nc12 ?
Found: no (0)

Lookup: Criterion: IC50 strictly below 4 nM. Is it met by Cc1ccc(C(=O)Nc2cc(C(C)(C)C)n[nH]2)cc1Nc1ncnc2cnc(N3CCOCC3)nc12 ?
Found: yes (1)

Lookup: Criterion: IC50 strictly below 4 nM. Is it met by Cc1ccc(C(=O)Nc2cccc(C(C)(C)C)c2)cc1Nc1ncnc2cnc(NCC(C)C)nc12 ?
Found: yes (1)

Lookup: Criterion: IC50 strictly below 4 nM. Is it met by Cc1ccc(C(=O)NCc2ccc(C(F)(F)F)cc2)cc1Nc1ncnc2cnc(N3CC[C@@H](F)C3)nc12 ?
Found: no (0)

Lookup: Criterion: IC50 strictly below 4 nM. Is it met by COc1ccc(NC(=O)c2ccc(C(F)(F)F)c(Nc3ncnc4cnc(N5CCN(C)CC5)nc34)c2)cc1C(F)(F)F ?
Found: no (0)

Lookup: Criterion: IC50 strictly below 4 nM. Is it met by Cc1ccc(C(=O)Nc2cc(C(C)(C)C)on2)cc1Nc1ncnc2cnc(N3C[C@@H](C)N[C@@H](C)C3)nc12 ?
Found: yes (1)

Lookup: Criterion: IC50 strictly below 4 nM. Is it met by Cc1ccc(C(=O)NCC2CCOC2)cc1Nc1ncnc2cnc(N3CCOCC3)nc12 (stereo not shown) ?
Found: no (0)
